Experiment: Displacement of [3H]TCP from rat cerebral cortex PCP receptor
Assay type: tissue-based

| Compound | IC50 |
| --- | --- |
| C[C@]12N[C@H](Cc3ccccc31)c1ccccc12 [DIZOCILPINE] | 4.6 nM |

----------
half-life at 20 µM values for the molecules below.
Experiment: in vitro
Conditions: mouse, liver microsomes

| Molecule | half-life at 20 µM, min |
| --- | --- |
| Cc1cccc(C)c1OCCOCCN[C@@H](C)CO | 37 |
| Cc1cc(C)c(OCCOCCNC(C)CO)c(C)c1 (stereo not drawn) | 136 |
| Cc1cccc(C)c1OCCOCCN[C@H](C)CO.Cl | 37 |
